# credit: ChEMBL document CHEMBL1153955

Provide the recorded log10 IC50 for the entries that follow.
Target: Human immunodeficiency virus type 1 reverse transcriptase (Human immunodeficiency virus 1, UniProt Q72547, K103N)
Assay: Inhibition of HIV1 reverse transcriptase p66/p51 K103N mutant
Conditions: read-out: IC50
Please interpret these as log10 of IC50 where IC50 is in nM.

>>> numeric_readout("Cc1cc(C)cc(S(=O)(=O)c2c(C(=O)N[C@@H](C)CC(N)=O)[nH]c3ccc(Cl)cc23)c1")
3.13
>>> numeric_readout("Cc1cc(C)cc(S(=O)(=O)c2c(C(=O)NNC(C)C)[nH]c3ccc(Cl)cc23)c1")
2.90
>>> numeric_readout("Cc1cc(C)cc(S(=O)(=O)c2c(C(=O)NCC(N)=O)[nH]c3ccc(Br)cc23)c1")
2.89

I'm hoping you can list log10 IC50 for every molecule here, please.
1. Cc1cc(C)cc(S(=O)(=O)c2c(C(=O)NCCC(N)=O)[nH]c3ccc(Cl)c(F)c23)c1
2. Cc1cc(C)cc(S(=O)(=O)c2c(C(=O)NC(C)C(N)=O)[nH]c3ccc(Br)cc23)c1 (centres undefined)

1: 2.89; 2: 2.71

---

Assay: Cytotoxicity against african green monkey Vero cells assessed as drug level causing microscopically detectable alteration of normal cell morphology after 3 days
Format: cell-based
Details: chlorocebus sabaeus
readout.kind: MCC at 72 h

Some solved entries appear below for comparison.
>>> result("Cc1cc(C)cc(S(=O)(=O)c2c(C(=O)NCC(N)=O)[nH]c3ccc(Cl)c(F)c23)c1")
"> 100 µM"
>>> result("NC(=O)c1ncn([C@@H]2O[C@H](CO)[C@@H](O)[C@H]2O)n1 [RIBAVIRIN]")
"> 250 µM"

Turning now to a further compound:
Given Cc1cc(C)cc(S(=O)(=O)c2c(C(N)=O)[nH]c3ccc(Cl)cc23)c1 , state its recorded MCC at 72 h.
> 100 µM

---

Molecular target: Human immunodeficiency virus type 1 reverse transcriptase (Human immunodeficiency virus 1, UniProt Q72547, L100I)
Assay: Inhibition of HIV1 reverse transcriptase p66/p51 L100I mutant
Details: read-out: IC50
Provide the recorded IC50 for the entries that follow.
Answer as a quantity: numeral, then unit.

>>> result("Cc1cc(C)cc(S(=O)(=O)c2c(C(=O)NCC(N)=O)[nH]c3ccc(Cl)cc23)c1")
"161 nM"

I'm hoping you can list IC50 for every compound here, please.
1. Cc1cc(C)cc(S(=O)(=O)c2c(C(=O)NCCC(N)=O)[nH]c3ccc(Cl)c(F)c23)c1
2. Cc1cc(C)cc(S(=O)(=O)c2c(C(=O)NC(C)C(N)=O)[nH]c3ccc(Cl)cc23)c1 (stereo not drawn)

1: 130 nM; 2: 112 nM

---

Test system: Human respirovirus 3
Assay: Antiviral activity against Parainfluenza virus type 3 in african green monkey Vero cells assessed as protection against virus-induced cytopathicity
Type: functional, organism-based
Conditions: Human respirovirus 3, Vero
readout.kind: EC50

I'm hoping you can list EC50 for every compound here, please.
1. Cc1cc(C)cc(S(=O)(=O)c2c(C(=O)NCCS(N)(=O)=O)[nH]c3ccc(Cl)cc23)c1
2. Cc1cc(C)cc(S(=O)(=O)c2c(C(=O)NCC(N)=O)[nH]c3ccc(Cl)c(F)c23)c1
3. Cc1cc(C)cc(S(=O)(=O)c2c(C(=O)NCC(N)=O)[nH]c3ccc(Br)cc23)c1
4. Nc1ncnc2c1ncn2C[C@H](O)CO [(S)-DHPA]

1: > 20 µM; 2: > 20 µM; 3: > 20 µM; 4: > 250 µM

---

Experiment: Cytotoxicity against MDCK cells by MTS assay
Format: cell-based, Canis lupus familiaris
Settings: dog
Provide the recorded CC50 for the entries that follow.

>>> result("CC(N)C12CC3CC(CC(C3)C1)C2 (stereo not given)")
"> 100 µM"

I'm hoping you can list CC50 for every compound here, please.
1. Cc1cc(C)cc(S(=O)(=O)c2c(C(=O)NNC(C)C)[nH]c3ccc(Cl)cc23)c1
2. Cc1cc(C)cc(S(=O)(=O)c2c(C(=O)NC(C)CC(N)=O)[nH]c3ccc([N+](=O)[O-])cc23)c1 (stereo not given)
3. Cc1cc(C)cc(S(=O)(=O)c2c(C(=O)NCC(N)=O)[nH]c3ccc([N+](=O)[O-])cc23)c1

["> 100 µM", "> 100 µM", "> 100 µM"]

Given Cc1cc(C)cc(S(=O)(=O)c2c(C(=O)NCCC(N)=O)[nH]c3ccc([N+](=O)[O-])cc23)c1 , state its recorded CC50.
> 100 µM

---

Molecular target: Human immunodeficiency virus type 1 reverse transcriptase (Human immunodeficiency virus 1, UniProt Q72547, K103N)
Assay: Inhibition of HIV1 reverse transcriptase p66/p51 K103N mutant
Conditions: read-out: IC50
Provide the recorded IC50 for the entries that follow.
Give bare numbers, in nM.

Some solved entries appear below for comparison.
>>> numeric_readout("Cc1cc(C)cc(S(=O)(=O)c2c(C(=O)N[C@H](C)C(N)=O)[nH]c3ccc(Cl)cc23)c1")
253
>>> numeric_readout("Cc1cc(C)cc(S(=O)(=O)c2c(C(=O)N[C@@H](C)C(N)=O)[nH]c3ccc(Cl)cc23)c1")
1010
>>> numeric_readout("Cc1cc(C)cc(S(=O)(=O)c2c(C(=O)NC(C)CC(N)=O)[nH]c3ccc(Cl)c(F)c23)c1 (centres undefined)")
3390

Turning now to a further molecule:
Given Cc1cc(C)cc(S(=O)(=O)c2c(C(=O)NC(C)C(N)=O)[nH]c3ccc([N+](=O)[O-])cc23)c1 (centres undefined) , state its recorded IC50.
362
